Tested on: Amaranthus palmeri (AMAPA)
Test: Pre-emergence herbicidal activity, percentage damage to AMAPA
Format: in vivo
Conditions: 1000 g/Ha, evaluated after 13 days, glasshouse
percentage damage caused to the plant (AMAPA) overview

Molecule: O=C(O)C[C@H]1[C@@H]2C[C@@H]2C(=O)N1Cc1cccc(F)c1F (relative stereo)
Data value: 2 (21-40%)

Molecule: O=C(O)C[C@@H]1[C@@H]2C[C@@H]2C(=O)N1Cc1ccc(Cl)cc1F (relative stereo)
Data value: 3 (41-60%)

Req: Tell me reported percentage damage caused to the plant (AMAPA) for COC(=O)C[C@@H]1[C@@H]2C[C@@H]2C(=O)N1Cc1cccc(F)c1F (relative stereo) , tested with Amaranthus palmeri (AMAPA).
Resp: 3 (41-60%)

Req: Tell me reported percentage damage caused to the plant (AMAPA) for O=C(O)C[C@@H]1[C@@H]2C[C@@H]2C(=O)N1Cc1ccc(Cl)c(F)c1 (relative stereo) , tested with Amaranthus palmeri (AMAPA).
Resp: 1 (0-20%)
